settings: in water, 303.15 K
OBSERVABLE: solubility (mole fraction)

>>> data_value("O=C(O)C(O)c1ccccc1 (racemic)")
0.037

----------
details: in isopropanol, 308.15 K
OBSERVABLE: solubility (mole fraction)

>>> data_value("O=C(O)C(O)c1ccccc1 (racemic)")
0.272

----------
settings: in ethanol, 328.55 K
OBSERVABLE: solubility (mole fraction)

>>> data_value("O=C(O)C(O)c1ccccc1 (racemic)")
0.394

----------
conditions: in n-propanol, 313.15 K
OBSERVABLE: solubility (mole fraction)

>>> data_value("O=C(O)C(O)c1ccccc1 (racemic)")
0.275

----------
details: in isopropanol, 305.15 K
OBSERVABLE: solubility (mole fraction)

>>> data_value("O=C(O)C(O)c1ccccc1 (racemic)")
0.262

----------
conditions: in isopropanol, 323.15 K
OBSERVABLE: solubility (mole fraction)

>>> data_value("O=C(O)C(O)c1ccccc1 (racemic)")
0.338

----------
details: in ethanol, 303.85 K
OBSERVABLE: solubility (mole fraction)

>>> data_value("O=C(O)C(O)c1ccccc1 (racemic)")
0.274

----------
details: in methanol, 308.15 K
OBSERVABLE: solubility (mole fraction)

>>> data_value("O=C(O)C(O)c1ccccc1 (racemic)")
0.293

----------
conditions: in ethanol, 333.45 K
OBSERVABLE: solubility (mole fraction)

>>> data_value("O=C(O)C(O)c1ccccc1 (racemic)")
0.418

----------
settings: in water, 338.15 K
OBSERVABLE: solubility (mole fraction)

>>> data_value("O=C(O)C(O)c1ccccc1 (racemic)")
0.317

----------
conditions: in ethanol, 319.15 K
OBSERVABLE: solubility (mole fraction)

>>> data_value("O=C(O)C(O)c1ccccc1 (racemic)")
0.349

----------
details: in isopropanol, 318.15 K
OBSERVABLE: solubility (mole fraction)

>>> data_value("O=C(O)C(O)c1ccccc1 (racemic)")
0.315

----------
details: in water, 328.15 K
OBSERVABLE: solubility (mole fraction)

>>> data_value("O=C(O)C(O)c1ccccc1 (racemic)")
0.237

----------
settings: in n-propanol, 333.15 K
OBSERVABLE: solubility (mole fraction)

>>> data_value("O=C(O)C(O)c1ccccc1 (racemic)")
0.368

----------
details: in ethanol, 299.45 K
OBSERVABLE: solubility (mole fraction)

>>> data_value("O=C(O)C(O)c1ccccc1 (racemic)")
0.261

----------
details: in water, 318.15 K
OBSERVABLE: solubility (mole fraction)

>>> data_value("O=C(O)C(O)c1ccccc1 (racemic)")
0.16

----------
settings: in water, 308.15 K
OBSERVABLE: solubility (mole fraction)

>>> data_value("O=C(O)C(O)c1ccccc1 (racemic)")
0.0656

----------
conditions: in water, 293.15 K
OBSERVABLE: solubility (mole fraction)

>>> data_value("O=C(O)C(O)c1ccccc1 (racemic)")
0.018

----------
conditions: in methanol, 313.15 K
OBSERVABLE: solubility (mole fraction)

>>> data_value("O=C(O)C(O)c1ccccc1 (racemic)")
0.308

Sourced from BigSolDB 2.1
